Tested on: Serine/threonine-protein kinase B-raf (Homo sapiens), P15056 [V600E];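 further: mean inhibition of the BRAF V599E mutant, from GSK PKIS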
Sequence (P15056 whole entry V600E): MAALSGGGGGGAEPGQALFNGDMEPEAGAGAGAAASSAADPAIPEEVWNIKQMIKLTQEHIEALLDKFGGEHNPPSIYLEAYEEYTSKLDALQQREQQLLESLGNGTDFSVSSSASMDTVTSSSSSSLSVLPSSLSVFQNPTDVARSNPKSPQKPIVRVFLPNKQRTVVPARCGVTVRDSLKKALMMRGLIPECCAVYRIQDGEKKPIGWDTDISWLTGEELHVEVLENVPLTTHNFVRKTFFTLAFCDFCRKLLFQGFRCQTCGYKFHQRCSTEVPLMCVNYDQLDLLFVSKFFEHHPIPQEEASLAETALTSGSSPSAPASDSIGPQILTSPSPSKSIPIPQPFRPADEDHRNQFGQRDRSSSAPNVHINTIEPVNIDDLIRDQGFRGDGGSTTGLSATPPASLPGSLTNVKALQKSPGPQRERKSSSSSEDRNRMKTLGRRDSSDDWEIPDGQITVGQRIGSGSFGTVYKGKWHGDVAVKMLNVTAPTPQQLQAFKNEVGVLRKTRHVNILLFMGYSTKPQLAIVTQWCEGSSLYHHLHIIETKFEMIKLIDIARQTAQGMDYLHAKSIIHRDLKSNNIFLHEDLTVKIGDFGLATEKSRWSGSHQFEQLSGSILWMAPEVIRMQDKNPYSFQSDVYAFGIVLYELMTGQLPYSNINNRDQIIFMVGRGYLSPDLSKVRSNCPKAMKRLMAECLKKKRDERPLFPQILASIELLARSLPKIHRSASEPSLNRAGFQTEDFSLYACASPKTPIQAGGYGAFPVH
Test Context: at 0.1 µM
Description: GSK_PKIS: BRAF (V599E mutant) mean inhibition at 0.1 uM [Nanosyn]
Readout Name: inhibition (%)
Only the number, expressed in %, is required.

Some molecules with recorded inhibition:
Smiles Record | Measurement Unit | Data Value
CCOc1ccc2c(-c3ccnc(Nc4cccc(C(F)(F)F)c4)n3)cnn2n1 | % | 3.04
COc1ccc2[nH]c3c4[nH]c5ccc(OC)cc5c4c4c(c3c2c1)C(=O)NC4=O | % | 5.01
Fc1ccc(-c2cc(-c3c[nH]nc3-c3ccccn3)ccn2)cc1 | % | 9.04
COC(=O)Nc1nc2ccc(Oc3ccc(NC(=O)Nc4cccc(Cl)c4)cc3)cc2[nH]1 | % | 6.79
NS(=O)(=O)c1ccc(Nc2ncc(-c3ccccc3)o2)cc1 | % | 6.65

Now take the following molecule into account.
Task: Looking for the measured inhibition of Cc1ccc(O)cc1Nc1ccnc2cc(-c3ccccn3)ccc12 , can you help?
Output: 8.35

====

Target Or Test System: Tyrosine-protein kinase Lyn (Homo sapiens);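 further: mean percent inhibition of the LYN A splice variant of the kinase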
Test Context: at 1 µM
Description: GSK_PKIS: LYN A (splice variant) mean inhibition at 1 uM [Nanosyn]
# inhibition values compiled below
Only the number, expressed in %, is required.

Some molecules with recorded inhibition:
Smiles Record | inhibition / %
CN(C)CCOc1ccc(-c2nc(-c3ccncc3)c(-c3ccc4c(c3)CC/C4=N\O)[nH]2)cc1 | 8.56
CNC(=O)c1cccc(C#Cc2cncnc2Nc2ccc(OCc3cccc(F)c3)c(Cl)c2)c1 | 5.89
CS(=O)(=O)CCNCc1coc(-c2ccc3ncnc(Nc4ccc(OCc5ccccc5)cc4)c3c2)c1 | 8.56
CCc1nn2ncccc2c1-c1ccnc(NC2CC2)n1 | 2.84
COc1cccc(-c2c[nH]c3c(N/N=C/c4ccncc4)ncnc23)c1 | 83.3
CCn1c(-c2nonc2N)nc2cnc(Oc3cccc(NC(=O)c4ccc(N(C)C)cc4)c3)cc21 | 1.6
COc1cc(/C=N/Nc2ncnc3[nH]ncc23)ccc1O | 63.9
FC(F)(F)c1cccc(-c2nn3ncccc3c2-c2ccnc(Nc3ccc4c(c3)OCCO4)n2)c1 | 39.5
CCN1CCC(CC(=O)Nc2n[nH]c3nnc(-c4cccc(F)c4F)cc23)CC1 | 3.55
CCOc1ccc2c(-c3ccnc(Nc4cccc(C(F)(F)F)c4)n3)cnn2n1 | 4.33

Task: Looking for the measured inhibition of COc1ccc2c(-c3ccnc(Nc4cccc(OC(F)(F)F)c4)n3)cnn2n1 , can you help?
Output: 9.21

Task: # iterate: COc1cc2c(cc1Nc1nc(Nc3ccsc3C(N)=O)c3cc[nH]c3n1)N(C(=O)CN(C)C)CCC2(C)C
Output: 4.24

Task: # iterate: COc1ccc(-c2oc3ncnc(N)c3c2-c2ccc(NC(=O)Nc3cc(C(F)(F)F)ccc3F)cc2)cc1
Output: 94.8

Task: # iterate: Clc1ccc(-c2nn3ncccc3c2-c2ccnc(Nc3ccccc3)n2)cc1
Output: 40.7

Task: # iterate: CS(=O)(=O)CCNCc1ccc(-c2ccc3ncnc(Nc4ccc(OCc5ccccc5)c(C(F)(F)F)c4)c3c2)o1
Output: 10.4

Task: # iterate: Nc1ncc(-c2cccc(S(N)(=O)=O)c2)c2scc(-c3ccc(F)c(Cl)c3)c12
Output: 56.7

Task: # iterate: Nc1nc(-c2ccc(F)cc2)c(-c2ccc3ncccc3n2)s1
Output: 39.4

Task: # iterate: O=C(Nc1n[nH]c2cc(-c3ccc(F)cc3)ccc12)C1CC1
Output: 5.51

Task: # iterate: COc1ccc(-c2nn3ncccc3c2-c2ccnc(Nc3ccc4c(c3)OCCO4)n2)cc1
Output: 60.4

====

# inhibition values compiled below
Test system: Mast/stem cell growth factor receptor Kit (Homo sapiens), P10721 [V560G]
Sequence (P10721 whole entry V560G): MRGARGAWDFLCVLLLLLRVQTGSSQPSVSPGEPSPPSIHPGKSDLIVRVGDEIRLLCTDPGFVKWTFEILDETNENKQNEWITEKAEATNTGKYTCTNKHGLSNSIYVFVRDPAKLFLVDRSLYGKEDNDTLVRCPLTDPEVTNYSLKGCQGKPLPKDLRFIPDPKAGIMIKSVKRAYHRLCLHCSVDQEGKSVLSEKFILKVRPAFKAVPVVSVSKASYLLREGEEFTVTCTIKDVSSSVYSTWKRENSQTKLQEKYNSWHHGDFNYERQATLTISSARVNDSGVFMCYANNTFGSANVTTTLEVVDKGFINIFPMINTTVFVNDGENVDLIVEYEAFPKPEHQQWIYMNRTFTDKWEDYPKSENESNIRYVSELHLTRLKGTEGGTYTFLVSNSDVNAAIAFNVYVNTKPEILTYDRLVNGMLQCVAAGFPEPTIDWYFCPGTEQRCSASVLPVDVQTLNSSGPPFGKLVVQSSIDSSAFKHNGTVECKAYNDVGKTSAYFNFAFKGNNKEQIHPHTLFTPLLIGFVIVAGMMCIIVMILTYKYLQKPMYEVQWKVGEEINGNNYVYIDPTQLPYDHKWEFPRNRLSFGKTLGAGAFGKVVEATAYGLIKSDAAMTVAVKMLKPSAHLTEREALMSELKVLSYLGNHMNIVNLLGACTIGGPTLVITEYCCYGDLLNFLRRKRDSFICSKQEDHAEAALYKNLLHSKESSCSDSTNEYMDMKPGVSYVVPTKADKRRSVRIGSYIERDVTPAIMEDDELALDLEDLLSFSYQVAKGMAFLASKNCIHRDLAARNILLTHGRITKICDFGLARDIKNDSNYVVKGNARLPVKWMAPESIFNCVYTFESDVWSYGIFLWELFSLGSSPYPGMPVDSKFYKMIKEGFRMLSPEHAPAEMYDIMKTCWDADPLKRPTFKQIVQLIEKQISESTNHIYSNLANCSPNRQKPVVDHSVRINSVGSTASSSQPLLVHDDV
Test Context: at 0.1 µM
Only the number, expressed in %, is required.

Some compounds with recorded inhibition:
Smiles Record | Data Value
CCOc1ccc2c(-c3ccnc(Nc4cccc(C(F)(F)F)c4)n3)cnn2n1 | -1.27
COc1ccc2[nH]c3c4[nH]c5ccc(OC)cc5c4c4c(c3c2c1)C(=O)NC4=O | 3.53
COC(=O)Nc1nc2ccc(Oc3ccc(NC(=O)Nc4cccc(Cl)c4)cc3)cc2[nH]1 | 69.5
Cc1cccc2c1NC(=O)/C2=N\Nc1ccc(S(N)(=O)=O)cc1 | 2.17
N#Cc1c(NC(=O)c2ccc(F)cc2)sc2c1CCCC2 | -0.83
COc1cccc(-c2c[nH]c3c(N/N=C/c4ccncc4)ncnc23)c1 | 4.19

Task: Looking for the measured inhibition of CNC(=O)c1cc(-c2ccc(F)cc2)cc(-c2ccc(S(=O)(=O)N3CCCC3)cc2)c1N , can you help?
Output: -2.57

Task: # iterate: c1ccc(-c2nc3n(c2-c2ccc4c(c2)OCO4)CCC3)nc1
Output: -1.47

Task: # iterate: c1cc(-c2cnn3nc(N4CCOCC4)ccc23)nc(NC2CC2)n1
Output: 4.27

Task: # iterate: O=S(=O)(CCNCc1ccc(-c2ccc3ncnc(Nc4ccc(OCc5cccc(F)c5)c(Cl)c4)c3c2)o1)c1ccccc1
Output: 0.27

====

Target Or Test System: Mast/stem cell growth factor receptor Kit (Homo sapiens) (UniProt P10721)
Sequence (P10721 whole entry): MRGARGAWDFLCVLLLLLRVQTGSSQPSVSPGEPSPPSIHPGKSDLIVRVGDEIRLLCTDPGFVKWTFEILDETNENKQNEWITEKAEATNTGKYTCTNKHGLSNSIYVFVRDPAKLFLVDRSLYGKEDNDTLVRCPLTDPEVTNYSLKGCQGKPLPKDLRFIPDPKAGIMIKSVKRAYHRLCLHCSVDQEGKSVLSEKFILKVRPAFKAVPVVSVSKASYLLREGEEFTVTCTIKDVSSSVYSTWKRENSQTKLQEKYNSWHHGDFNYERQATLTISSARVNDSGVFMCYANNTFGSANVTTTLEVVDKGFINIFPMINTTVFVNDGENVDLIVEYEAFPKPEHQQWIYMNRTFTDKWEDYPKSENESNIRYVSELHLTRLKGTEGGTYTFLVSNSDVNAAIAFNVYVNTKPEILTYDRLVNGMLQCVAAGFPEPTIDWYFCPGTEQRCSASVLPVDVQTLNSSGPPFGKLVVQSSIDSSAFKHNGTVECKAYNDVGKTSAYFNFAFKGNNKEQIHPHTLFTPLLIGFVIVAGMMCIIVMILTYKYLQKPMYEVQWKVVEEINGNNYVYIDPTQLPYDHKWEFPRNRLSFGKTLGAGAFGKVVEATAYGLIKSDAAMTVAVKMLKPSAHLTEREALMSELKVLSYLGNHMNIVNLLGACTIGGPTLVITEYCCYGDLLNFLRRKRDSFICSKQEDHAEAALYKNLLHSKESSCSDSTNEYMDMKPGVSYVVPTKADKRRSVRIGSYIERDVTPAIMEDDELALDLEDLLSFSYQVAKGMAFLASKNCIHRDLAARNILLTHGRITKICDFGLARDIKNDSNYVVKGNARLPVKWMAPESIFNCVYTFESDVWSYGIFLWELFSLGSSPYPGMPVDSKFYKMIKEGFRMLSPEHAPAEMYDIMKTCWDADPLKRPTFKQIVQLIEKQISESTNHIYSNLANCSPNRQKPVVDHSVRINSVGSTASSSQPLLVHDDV
Test Context: at 0.1 µM
Readout Name: inhibition
A complete answer gives the number followed by the unit.

Some molecules with recorded inhibition:
Smiles Record | Target Or Test System | inhibition
N#Cc1c(NC(=O)CN2CCOCC2)sc2c1CCCC2 | Mast/stem cell growth factor receptor Kit (Homo sapiens) (UniProt P10721) | 6.21%
FC(F)(F)c1cccc(-c2nn3ncccc3c2-c2ccnc(Nc3ccc4c(c3)OCCO4)n2)c1 | Mast/stem cell growth factor receptor Kit (Homo sapiens) (UniProt P10721) | 2.36%
COc1ccc(-c2oc3ncnc(N)c3c2-c2ccc(NC(=O)Nc3cc(C(F)(F)F)ccc3F)cc2)cc1 | Mast/stem cell growth factor receptor Kit (Homo sapiens) (UniProt P10721) | 37.9%
CCOc1ccc2c(-c3ccnc(Nc4cccc(C(F)(F)F)c4)n3)cnn2n1 | Mast/stem cell growth factor receptor Kit (Homo sapiens) (UniProt P10721) | 3.18%
COC(=O)Nc1nc2ccc(S(=O)(=O)c3ccc(NC(=O)Nc4cc(C(F)(F)F)ccc4F)cc3)cc2[nH]1 | Mast/stem cell growth factor receptor Kit (Homo sapiens) (UniProt P10721) | 2.47%
COc1ccc(-c2nn3ncccc3c2-c2ccnc(Nc3ccc4c(c3)OCCO4)n2)cc1 | Mast/stem cell growth factor receptor Kit (Homo sapiens) (UniProt P10721) | 40.5%
CNC(=O)c1cccc(C#Cc2cncnc2Nc2ccc(OCc3cccc(F)c3)c(Cl)c2)c1 | Mast/stem cell growth factor receptor Kit (Homo sapiens) (UniProt P10721) | 2.56%
CN1CCC(n2cnc(-c3ccc(F)cc3)c2-c2ccnc(Nc3ccccc3)n2)CC1 | Mast/stem cell growth factor receptor Kit (Homo sapiens) (UniProt P10721) | 2.33%
CS(=O)(=O)CCNCc1coc(-c2ccc3ncnc(Nc4ccc(OCc5ccccc5)cc4)c3c2)c1 | Mast/stem cell growth factor receptor Kit (Homo sapiens) (UniProt P10721) | -0.21%

Task: Recorded inhibition for CCc1nn2ncccc2c1-c1ccnc(NC2CC2)n1 with Mast/stem cell growth factor receptor Kit (Homo sapiens) (UniProt P10721), please?
Output: 3.6%

====

# inhibition values compiled below
Target Or Test System: Receptor tyrosine-protein kinase erbB-4 (Homo sapiens) (UniProt Q15303);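 further: values are averaged percent inhibition of ERBB4 kinase activity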
Sequence (Q15303 whole entry): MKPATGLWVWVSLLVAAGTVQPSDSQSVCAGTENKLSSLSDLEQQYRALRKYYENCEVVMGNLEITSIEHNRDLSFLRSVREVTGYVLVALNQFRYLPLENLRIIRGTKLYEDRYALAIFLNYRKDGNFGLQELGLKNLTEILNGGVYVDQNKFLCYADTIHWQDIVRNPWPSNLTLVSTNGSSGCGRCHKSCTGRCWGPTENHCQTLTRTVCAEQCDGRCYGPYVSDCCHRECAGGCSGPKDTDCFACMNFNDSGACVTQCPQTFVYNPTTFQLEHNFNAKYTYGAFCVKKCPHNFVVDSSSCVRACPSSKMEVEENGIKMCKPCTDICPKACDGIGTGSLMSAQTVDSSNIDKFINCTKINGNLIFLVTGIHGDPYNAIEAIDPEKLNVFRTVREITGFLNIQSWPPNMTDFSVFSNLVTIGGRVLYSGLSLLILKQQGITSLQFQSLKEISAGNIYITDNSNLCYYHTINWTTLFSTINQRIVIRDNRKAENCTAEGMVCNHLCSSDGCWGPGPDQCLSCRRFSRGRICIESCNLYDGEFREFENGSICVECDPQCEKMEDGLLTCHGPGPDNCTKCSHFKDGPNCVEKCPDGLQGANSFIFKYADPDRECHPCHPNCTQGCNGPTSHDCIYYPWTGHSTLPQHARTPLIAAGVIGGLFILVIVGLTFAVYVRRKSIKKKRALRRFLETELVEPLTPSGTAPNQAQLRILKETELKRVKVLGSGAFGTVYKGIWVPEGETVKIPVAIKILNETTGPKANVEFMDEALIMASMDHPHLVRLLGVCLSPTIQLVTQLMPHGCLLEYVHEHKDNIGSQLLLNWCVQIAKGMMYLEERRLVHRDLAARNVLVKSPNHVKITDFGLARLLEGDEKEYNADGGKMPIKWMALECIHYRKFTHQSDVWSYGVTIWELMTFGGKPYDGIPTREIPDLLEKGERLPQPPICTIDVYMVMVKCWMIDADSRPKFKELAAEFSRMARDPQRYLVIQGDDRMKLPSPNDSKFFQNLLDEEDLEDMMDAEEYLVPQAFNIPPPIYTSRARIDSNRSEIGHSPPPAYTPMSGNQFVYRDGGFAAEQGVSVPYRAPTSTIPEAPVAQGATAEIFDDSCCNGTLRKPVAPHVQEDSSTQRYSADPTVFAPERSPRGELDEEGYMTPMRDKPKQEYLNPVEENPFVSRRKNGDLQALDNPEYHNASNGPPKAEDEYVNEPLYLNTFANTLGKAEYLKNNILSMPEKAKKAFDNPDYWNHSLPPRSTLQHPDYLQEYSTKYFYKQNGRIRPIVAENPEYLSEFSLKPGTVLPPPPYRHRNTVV
Test Context: at 0.1 µM
Only the number, expressed in %, is required.

Some compounds with recorded inhibition:
Smiles Record | inhibition (%)
CCn1cc(-c2ccnc3[nH]ccc23)c(-c2cccc(NC(=O)Nc3ccc(OCc4ccccc4)cc3)c2)n1 | 9.5
Cc1cccc(Nc2ncc(-c3ccccc3)o2)c1 | 3.46
CC(C)(CO)CNC(=O)c1ccc2c(c1)/C(=N/Nc1ccc(S(N)(=O)=O)cc1)C(=O)N2 | 4.68
FC(F)(F)c1cccc(-c2nn3ncccc3c2-c2ccnc(Nc3ccc4c(c3)OCCO4)n2)c1 | 48.3
O=C(Nc1n[nH]c2cc(-c3ccc(F)cc3)ccc12)C1CC1 | 6.81
c1cc(-c2cnn3nc(N4CCOCC4)ccc23)nc(NC2CC2)n1 | 13.6
NS(=O)(=O)c1ccc(Nc2ncc(-c3ccccc3)o2)cc1 | 8.79
COC(=O)Nc1nc2ccc(S(=O)(=O)c3ccc(NC(=O)Nc4cc(C(F)(F)F)ccc4F)cc3)cc2[nH]1 | 9.54

Task: Recorded inhibition for CCn1c(-c2nonc2N)nc2ccccc21 with Receptor tyrosine-protein kinase erbB-4 (Homo sapiens) (UniProt Q15303), please?
Output: 12.3

Task: # iterate: CS(=O)(=O)CCNCc1ccc(-c2ccc3ncnc(Nc4ccc(OCc5ccccc5)c(C(F)(F)F)c4)c3c2)o1
Output: 9.71

====

# inhibition values compiled below
Target Or Test System: Serine/threonine-protein kinase D2 (Homo sapiens);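 further: mean value of PRKD2 inhibition, from the GSK PKIS screening panel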
Sequence (whole entry): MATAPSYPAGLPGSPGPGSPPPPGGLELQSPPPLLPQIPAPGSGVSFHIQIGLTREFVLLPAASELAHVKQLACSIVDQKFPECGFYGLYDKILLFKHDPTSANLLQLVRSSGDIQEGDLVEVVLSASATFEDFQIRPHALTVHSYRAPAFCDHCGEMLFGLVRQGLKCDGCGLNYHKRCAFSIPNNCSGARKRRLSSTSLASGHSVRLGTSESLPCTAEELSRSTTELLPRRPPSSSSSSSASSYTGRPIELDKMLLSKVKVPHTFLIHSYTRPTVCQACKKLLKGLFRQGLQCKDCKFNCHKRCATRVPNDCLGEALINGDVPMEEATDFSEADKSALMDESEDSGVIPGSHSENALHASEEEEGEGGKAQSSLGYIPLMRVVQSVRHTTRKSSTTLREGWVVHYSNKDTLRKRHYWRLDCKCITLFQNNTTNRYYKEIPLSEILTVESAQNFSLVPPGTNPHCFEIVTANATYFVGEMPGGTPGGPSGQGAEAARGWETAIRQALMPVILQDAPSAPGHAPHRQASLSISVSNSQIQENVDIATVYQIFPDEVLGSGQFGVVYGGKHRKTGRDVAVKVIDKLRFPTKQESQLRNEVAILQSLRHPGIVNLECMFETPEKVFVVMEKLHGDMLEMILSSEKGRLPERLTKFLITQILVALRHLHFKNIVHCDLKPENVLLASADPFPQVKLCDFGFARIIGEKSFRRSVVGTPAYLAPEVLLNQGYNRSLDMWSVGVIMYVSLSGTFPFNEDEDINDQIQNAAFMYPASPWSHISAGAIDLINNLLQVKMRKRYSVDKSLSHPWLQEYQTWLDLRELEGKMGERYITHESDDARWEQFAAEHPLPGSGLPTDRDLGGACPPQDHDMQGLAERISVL
Test Context: at 1 µM
Only the number, expressed in %, is required.

Smiles Record | Target Or Test System | Measurement Unit | inhibition
CCn1cc(-c2ccnc3[nH]ccc23)c(-c2cccc(NC(=O)Nc3ccc(OCc4ccccc4)cc3)c2)n1 | Serine/threonine-protein kinase D2 (Homo sapiens) | % | 2.85
CNC(=O)c1cccc(C#Cc2cncnc2Nc2ccc(OCc3cccc(F)c3)c(Cl)c2)c1 | Serine/threonine-protein kinase D2 (Homo sapiens) | % | 2.02
O=C(Nc1n[nH]c2cc(-c3ccc(F)cc3)ccc12)C1CC1 | Serine/threonine-protein kinase D2 (Homo sapiens) | % | 4.37
CNC(=O)c1cc(-c2ccc(F)cc2)cc(-c2ccc(S(=O)(=O)N3CCCC3)cc2)c1N | Serine/threonine-protein kinase D2 (Homo sapiens) | % | 1.98
Fc1cccc(COc2ccc(Nc3ncnc4sc(-c5ccco5)cc34)cc2Cl)c1 | Serine/threonine-protein kinase D2 (Homo sapiens) | % | 2.52

Task: Looking for the measured inhibition of CCn1c(-c2nonc2N)nc2ccccc21 , can you help?
Output: 4.37

Task: # iterate: CCN1CCC(CC(=O)Nc2n[nH]c3nnc(-c4cccc(F)c4F)cc23)CC1
Output: 2.99

Task: # iterate: CN(C)CCOc1ccc(-c2nc(-c3ccncc3)c(-c3ccc4c(c3)CC/C4=N\O)[nH]2)cc1
Output: 6.37

Task: # iterate: COC(=O)c1sc(-n2cnc3cc(OC)c(OC)cc32)cc1OCc1ccccc1C(F)(F)F
Output: 5.96

Task: # iterate: N#Cc1c(NC(=O)c2ccc(F)cc2)sc2c1CCCC2
Output: 2.16
